# System Under Test: T1, human IL-6 (human, UniProt P05231 30-212)
# T1 construct: IL-6 flowed over captured antibodies
# T1 sequence (P05231 30-212 limits assumed): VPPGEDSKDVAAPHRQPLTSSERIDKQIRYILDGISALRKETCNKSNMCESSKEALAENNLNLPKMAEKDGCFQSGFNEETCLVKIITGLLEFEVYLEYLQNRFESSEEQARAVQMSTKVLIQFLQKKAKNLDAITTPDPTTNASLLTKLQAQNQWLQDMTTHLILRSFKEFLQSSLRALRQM
# Assay Comment: SPR Biacore, supernatant Ab on Protein A chip, 37 C
Examples of binders with documented koff follow.
Write the number in s⁻¹ without appending the unit.

Form field koff, entry anti-IL-6 antibody, heavy chain T63R, G66D / light chain M32L, M50D, N52S, M88Q (antibody, IgG1, V domains shown, Full IgG1 (Expi293); VL = variant III) VH: EVQLVESGGGLVQPGGSLRLSCAASGFTFSPFAMSWVRQAPGKGLEWVAKISPGGSWTYYSDRVTDRFTFSLDTSKSTAYLQMNSLRAEDTAVYYCARQLWGYYALDIWGQGTLVTVSS VL: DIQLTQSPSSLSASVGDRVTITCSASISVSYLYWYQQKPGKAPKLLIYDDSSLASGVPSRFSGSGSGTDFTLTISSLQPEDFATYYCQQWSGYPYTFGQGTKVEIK : 0.000526
